measuredTarget: GRK2 (Homo sapiens, UniProt P25098)
Construct: purchased SignalChem A14-10G
Sequence (P25098 1-689): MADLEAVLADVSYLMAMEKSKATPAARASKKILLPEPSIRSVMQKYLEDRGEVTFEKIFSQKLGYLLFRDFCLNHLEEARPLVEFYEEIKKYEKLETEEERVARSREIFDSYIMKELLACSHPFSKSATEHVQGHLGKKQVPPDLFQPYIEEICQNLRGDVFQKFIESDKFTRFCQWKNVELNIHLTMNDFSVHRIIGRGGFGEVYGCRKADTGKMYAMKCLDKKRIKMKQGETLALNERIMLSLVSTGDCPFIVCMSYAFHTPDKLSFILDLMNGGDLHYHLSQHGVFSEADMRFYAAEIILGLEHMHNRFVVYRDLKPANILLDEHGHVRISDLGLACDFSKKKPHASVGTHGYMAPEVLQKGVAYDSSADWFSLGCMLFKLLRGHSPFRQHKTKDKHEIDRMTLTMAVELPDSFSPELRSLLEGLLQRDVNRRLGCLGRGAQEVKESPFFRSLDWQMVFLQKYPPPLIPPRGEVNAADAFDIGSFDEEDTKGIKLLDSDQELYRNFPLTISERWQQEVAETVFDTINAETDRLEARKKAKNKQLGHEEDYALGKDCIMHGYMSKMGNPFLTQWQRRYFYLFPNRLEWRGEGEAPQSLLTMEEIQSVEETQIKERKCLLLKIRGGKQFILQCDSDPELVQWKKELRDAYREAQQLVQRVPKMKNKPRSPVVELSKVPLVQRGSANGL
methodNotes: ADPGlo GRK2 Inhibition Assay (Example 8)
Assay type: biochemical
cond: ADPGlo GRK2 enzyme assay; read-out: A: Enzymatic GRK2: IC50 (nM) (Example 8)
testReadout: log10 of IC50 (log10 of the value in nM)
Use the decimal logarithm of IC50 (nM).

Solved entries:
{"molecule": "Cn1c(CNc2cccc(C(=O)NC3CCOc4ncccc43)c2)nnc1-c1ccncn1 (stereo not shown)", "measuredTarget": "GRK2 (Homo sapiens, UniProt P25098)", "log10 of IC50": 1.75}
{"molecule": "COc1ccccc1C(C#N)NC(=O)c1cccc(NCc2nnc(-c3ccncn3)n2C)c1 (stereo not shown)", "measuredTarget": "GRK2 (Homo sapiens, UniProt P25098)", "log10 of IC50": 0.78}
{"molecule": "[2H]C([2H])(Nc1cccc(C(=O)N[C@H]2CCOc3ccccc32)c1)c1nnc(-c2ccncn2)n1CCO", "measuredTarget": "GRK2 (Homo sapiens, UniProt P25098)", "log10 of IC50": 0.51}
{"molecule": "Cn1c(CNc2cccc(C(=O)NC(CO)c3c(F)cccc3F)c2)nnc1-c1ccncn1 (stereo not shown)", "measuredTarget": "GRK2 (Homo sapiens, UniProt P25098)", "log10 of IC50": 2.16}
{"molecule": "Cn1c(CNc2cc(C(=O)N[C@H]3COc4cc(F)ccc43)ccn2)nnc1-c1ccncn1", "measuredTarget": "GRK2 (Homo sapiens, UniProt P25098)", "log10 of IC50": 2.07}
{"molecule": "Cn1c(CNc2cccc(C(=O)NCc3ccccc3S(=O)(=O)N3CCOCC3)c2)nnc1-c1ccncn1", "measuredTarget": "GRK2 (Homo sapiens, UniProt P25098)", "log10 of IC50": 1.72}

`Cn1c(CNc2cccc(C(=O)NCc3ccc(O)nc3)c2)nnc1-c1ccncn1` has a reported log10 of IC50 of 2.31

`Cn1c(CNc2cccc(C(=O)NCc3ccccc3-n3cccn3)c2)nnc1-c1ccncn1` has a reported log10 of IC50 of 2.26

`Cn1c(CNc2cccc(C(=O)NCc3ccccc3NS(C)(=O)=O)c2)nnc1-c1ccncn1` has a reported log10 of IC50 of 1.51

Cn1c(CNc2cccc(C(=O)NC(c3ccccn3)C3CC3)c2)nnc1-c1ccncn1 (stereo not shown) has a reported log10 of IC50 of 1.84

`Cn1c(CNc2cccc(C(=O)NC3(c4ncccc4F)CC3)c2)nnc1-c1ccncn1` has a reported log10 of IC50 of 2.02

`CN(C)S(=O)(=O)c1ccccc1CNC(=O)c1cccc(NCc2nnc(-c3ccncn3)n2C)c1` has a reported log10 of IC50 of 1.67

###

measuredTarget: GRK2 (Homo sapiens)
Construct: purchased SignalChem A14-10G
Sequence (P25098 1-689): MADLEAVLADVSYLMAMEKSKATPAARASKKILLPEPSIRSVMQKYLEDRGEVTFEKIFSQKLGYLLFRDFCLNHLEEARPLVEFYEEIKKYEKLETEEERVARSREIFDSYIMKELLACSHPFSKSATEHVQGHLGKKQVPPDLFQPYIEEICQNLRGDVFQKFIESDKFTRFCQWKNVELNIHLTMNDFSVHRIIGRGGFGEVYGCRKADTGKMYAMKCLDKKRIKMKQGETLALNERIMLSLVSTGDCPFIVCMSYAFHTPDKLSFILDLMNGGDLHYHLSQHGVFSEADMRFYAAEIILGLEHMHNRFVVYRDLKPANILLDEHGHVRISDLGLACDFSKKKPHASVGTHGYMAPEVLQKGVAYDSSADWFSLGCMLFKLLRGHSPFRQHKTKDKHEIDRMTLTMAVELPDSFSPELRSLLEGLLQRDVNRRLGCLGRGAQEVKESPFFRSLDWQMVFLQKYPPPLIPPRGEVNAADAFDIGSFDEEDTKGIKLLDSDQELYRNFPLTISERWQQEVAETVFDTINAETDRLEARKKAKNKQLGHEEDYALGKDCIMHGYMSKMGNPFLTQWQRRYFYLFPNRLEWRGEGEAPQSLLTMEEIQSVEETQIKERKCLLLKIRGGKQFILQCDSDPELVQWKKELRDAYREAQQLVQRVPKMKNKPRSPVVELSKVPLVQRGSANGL
methodNotes: ADPGlo GRK2 Inhibition Assay (Example 8)
Assay type: biochemical
cond: Enzyme Assay A, ADPGlo (Example 8); read-out: A: Enzymatic GRK2: IC50 (nM) (Example 8)
testReadout: log10 of IC50 (log10 of the value in nM)
Use the decimal logarithm of IC50 (nM).

{"compound": "C[C@H](NC(=O)c1cccc(NCc2nnc(-c3ccncn3)n2C)c1)c1cncs1", "testReadout": "log10 of IC50", "observedResult": 2.61}
{"compound": "COc1cnccc1CNC(=O)c1cccc(NCc2nnc(-c3ccncc3)[nH]2)c1", "testReadout": "log10 of IC50", "observedResult": 1.41}
{"compound": "Cn1c(CNc2cccc(C(=O)N[C@@H]3CCOc4c(Cl)cccc43)c2)nnc1-c1ccncc1", "testReadout": "log10 of IC50", "observedResult": 1.44}
{"compound": "COc1cccc2c1OCC[C@@H]2NC(=O)c1cccc(NCc2nnc(-c3ccncn3)n2C)c1", "testReadout": "log10 of IC50", "observedResult": 1.94}

Lab note: compound CN1CCC(NC(=O)c2cccc(NCc3nnc(-c4ccncn4)n3C)c2)c2ccccc21 (centres unmarked) [drawing 321] tested on GRK2 (Homo sapiens); recorded log10 of IC50 was 1.57

Lab note: compound `Cc1cccc([C@H](CO)NC(=O)c2cccc(NCc3nnc(-c4ccncn4)n3CCO)c2)c1` tested on GRK2 (Homo sapiens); recorded log10 of IC50 was 0.37

Lab note: compound Cn1c(CNc2cccc(C(=O)NCc3ccc(C#N)cc3)c2)nnc1-c1ccncn1 [drawing 603] tested on GRK2 (Homo sapiens); recorded log10 of IC50 was 0.80

###

Reported IC50 by item:
measuredTarget: GRK2 (Homo sapiens)
Construct: purchased SignalChem A14-10G
Sequence (P25098 1-689): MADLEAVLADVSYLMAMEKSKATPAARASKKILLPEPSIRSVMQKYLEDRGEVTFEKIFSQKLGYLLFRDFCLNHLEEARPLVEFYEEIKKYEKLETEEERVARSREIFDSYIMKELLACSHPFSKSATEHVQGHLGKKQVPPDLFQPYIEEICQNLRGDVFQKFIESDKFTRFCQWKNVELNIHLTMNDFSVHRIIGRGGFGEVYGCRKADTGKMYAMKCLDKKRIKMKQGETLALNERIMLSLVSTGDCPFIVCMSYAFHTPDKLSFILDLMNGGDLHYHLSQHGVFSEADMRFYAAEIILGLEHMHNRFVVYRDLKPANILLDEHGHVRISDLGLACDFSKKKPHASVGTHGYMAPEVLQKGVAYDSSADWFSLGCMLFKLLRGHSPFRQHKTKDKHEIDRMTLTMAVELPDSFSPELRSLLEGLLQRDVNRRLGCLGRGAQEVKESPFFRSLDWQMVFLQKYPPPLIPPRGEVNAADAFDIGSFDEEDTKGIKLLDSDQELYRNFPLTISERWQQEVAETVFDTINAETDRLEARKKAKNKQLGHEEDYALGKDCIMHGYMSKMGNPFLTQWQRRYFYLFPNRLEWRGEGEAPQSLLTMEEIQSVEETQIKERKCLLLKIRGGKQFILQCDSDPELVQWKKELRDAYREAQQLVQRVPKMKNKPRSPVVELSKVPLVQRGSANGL
methodNotes: ADPGlo GRK2 Inhibition Assay (Example 8)
Format: biochemical
cond: Enzyme Assay A, ADPGlo (Example 8); read-out: A: Enzymatic GRK2: IC50 (nM) (Example 8)
Lab book: enter the figure in nM, no units written.

COc1cccc(C(CO)NC(=O)c2cccc(NCc3nnc(-c4ccncn4)n3C)c2)c1 (centres unmarked) [drawing 569] has a reported IC50 of 5.4

Cc1csc(CNC(=O)c2cccc(NCc3nnc(-c4ccncn4)n3C)c2)n1 [drawing 283] has a reported IC50 of 100

`COc1cccc(CNC(=O)c2cccc(NCc3nnc(-c4ccncn4)n3C)c2)c1` has a reported IC50 of 22
